System: ACHN renal
Test: NCI-60 one-dose screen, 48 h
Conditions: 10 µM unless noted
Description: Growth inhibition of the ACHN human tumor cell line is measured as a screen for anti-cancer activity. Cells are grown in 96 well plates and exposed to the test compound for 48 hours. Compounds are tested at a single concentration, which is 10^-5 M for most compounds. The reported endpoint is percent growth (GI% or GIPRCNT), where numbers from 0 - 100% represent growth inhibition, and numbers from -100% - 0 represent cell death. For example, a value of 40 represents 60% growth inhibition. […]
This is part of a sample that, as a whole, favours compounds with a hit. Of some 83,000 tested, about 20% had one in any assay. The source made the active and inactive calls. Rule for the calls: active = growth percent below 10; inactive = the rest.
Please state which outcome applies, choosing from True for active, False for inactive

Example entries and their recorded answers appear below.
INSERT INTO results (compound, system_under_test, category_label) VALUES
  ('COc1ccc(C2=NN(C(=O)COc3ccc(Cl)cc3)C(O)(c3cc(F)c(Cl)cc3Cl)C2)cc1OC (centres undefined)', 'ACHN renal', 'True'),
  ('CCN(CC)CCNC(=O)c1c(C)[nH]c(/C=C2\C(=O)Nc3cc(NC(=O)NC(=O)c4ccc(OC)cc4F)ccc32)c1C', 'ACHN renal', 'False'),
  ('CO[C@H]1/C=C/C=C/C=C/C[C@H](OC(=O)[C@@H](C)NC(=O)C2CCCCC2)[C@H](C)[C@@H](O)/C(C)=C\CCC2=CC(=O)C=C(NC(=O)C1)C2=O', 'ACHN renal', 'True');

What classification did COc1cccc(-c2nc3sccn3c2-c2ccnc(NCCNC(=O)Nc3cccc(C(F)(F)F)c3)n2)c1 end up with in this test?
False

Could you do the same for O=C(Nc1ccc(-n2ccc3c(NC(=O)c4ccccc4)nccc32)cc1)c1ccc(Cl)c(C(F)(F)F)c1 , please?
False

Could you do the same for Cc1cn(-c2nc3c(c(NCc4ccccc4)n2)COCC3)c2cccc(C(N)=O)c12 , please?
False

Could you do the same for COc1cc2ncnc(Oc3ccc(NC(=O)Nc4ccc(CN5CCOCC5)c(C(F)(F)F)c4)c4ccccc34)c2cc1OC , please?
True

Could you do the same for Cc1cn(C2CC(N=[N+]=[N-])C(COP(=O)(O)OP(=O)(O)OP(=O)(O)O)O2)c(=O)[nH]c1=O (centres undefined) , please?
False

Could you do the same for Cc1nssc1=S , please?
False

Could you do the same for Cc1cc2c(cc1C)N(C(=O)CCl)CCN2C(=O)CCl , please?
True

Could you do the same for COc1ccc(C2=NN(C(=O)COc3ccc(Cl)cc3)C(O)(c3cc(F)c(Cl)cc3Cl)C2)cc1 (centres undefined) , please?
False

Could you do the same for Cc1cc(NCCN(C(C)C)C(C)C)nc(/N=C(\N)Nc2ccc(Cl)c(C(F)(F)F)c2)n1 , please?
True

----------
tested on: SR leukemia; assay: NCI-60 one-dose screen, 48 h; conditions: 10 µM unless noted
About 83,000 compounds went through this panel and 20% of them were active in at least one assay; those are over-represented in the sample as a whole. Active and inactive are the calls of the source. Rule for the calls: active = growth percent below 10; inactive = the rest.
Please state which outcome applies, choosing from 1 (yes) = active, 0 (no) = inactive

Example entries and their recorded answers appear below.
INSERT INTO measurements (compound, category_label) VALUES
  ('Cc1cn(-c2cc(C(=O)Nc3cccc(-n4ccc5c(NC(=O)c6ccccc6)nccc54)c3)cc(C(F)(F)F)c2)cn1', '1 (yes)'),
  ('CC(CCC(=O)O)[C@H]1CCC2C3C(=O)C[C@@H]4CC(=O)CC[C@]4(C)C3CC(=O)[C@@]21C (some centres undefined)', '0 (no)'),
  ('Nc1nc(Cl)c2c(C(F)(F)F)cn(CC3CCNCC3)c2n1', '1 (yes)'),
  ('Cc1ncc(CO)c(C(=O)O)c1O', '0 (no)'),
  ('C=C1C(=O)O[C@H]2[C@H]1CC/C(COC(=O)c1ccccc1)=C\CC[C@@]1(C)O[C@@H]21', '1 (yes)'),
  ('Cc1ccc(N(CC2=NCCN2)c2cccc(O)c2)cc1', '0 (no)'),
  ('NC(=S)NNC1CCCCC1', '0 (no)'),
  ('Cc1cn(C2CC(N=[N+]=[N-])C(COP(=O)(O)OP(=O)(O)OP(=O)(O)O)O2)c(=O)[nH]c1=O (centres undefined)', '0 (no)'),
  ('Nc1nc(-c2cc3c(cc2Cl)NC(=O)/C3=C/c2ccccc2)cs1', '0 (no)'),
  ('O=C(Nc1cccc(-n2ccc3c(NC(=O)c4ccccc4)nccc32)c1)Nc1ccc(Cl)c(C(F)(F)F)c1', '1 (yes)');

What classification did COc1ccc(C2=NN(C(=O)COc3ccc(Cl)cc3)C(O)(c3cc(F)c(Cl)cc3Cl)C2)cc1 (centres undefined) end up with in this test?
0 (no)

Could you do the same for Nc1ncnc2c1c(C(F)(F)F)cn2[C@@H]1O[C@H](CO)[C@@H](O)[C@H]1O , please?
1 (yes)

Could you do the same for Nc1nc(=S)ss1 , please?
0 (no)

Could you do the same for CC/C(=C(\CC)c1ccc(OCCN(CC)CC)cc1)c1ccc(OCCN(CC)CC)cc1 , please?
1 (yes)

Could you do the same for O=C(Nc1cccc(-n2ccc3c(NC(=O)c4ccccc4)nccc32)c1)c1cc(N2CCOCC2)cc(C(F)(F)F)c1 , please?
1 (yes)

----------
test system: SW-620 colon; test: NCI-60 one-dose screen, 48 h (100 = growth as untreated, 0 = no growth, -100 = all killed); conditions: 10 µM unless noted
Compounds without any hit were thinned out: in the full panel of roughly 83,000, 20% have a hit.
Label t when growth is at or above 60%; otherwise label f.

Example entries and their recorded answers appear below.
INSERT INTO assay_data (molecule, category_label) VALUES
  ('CC1(C)N=C(N)N=C(N)N1c1cccc(CCCCc2ccccc2)c1', 'f'),
  ('O=C(O)c1cccc2oc(-c3ccccc3O)nc12', 'f'),
  ('COc1ccc(/C(Cl)=N/N=C(\Cl)c2cc(OC)c(OC)c(OC)c2)cc1OC(C)=O', 't'),
  ('CC[C@@]1(O)C(=O)OCc2c1cc1n(c2=O)Cc2c-1nc1ccccc1c2/C=N/OC(C)(C)C', 'f'),
  ('Nc1nc(-c2cc3c(cc2Cl)NC(=O)/C3=C/c2ccc(Cl)cc2)cs1', 'f'),
  ('O=C(O)c1ccc(-n2cc(/C=N/Nc3ccc(F)cc3)c(-c3cccc(C(F)(F)F)c3)n2)cc1', 't');

Check if growth >= 60% (inclusive). Item: C[C@@H]1CC2C3C[C@H](F)C4=CC(=O)C=C[C@]4(C)[C@@]3(F)[C@@H](O)C[C@]2(C)[C@@]1(O)C(=O)CO (stereo not given in full)
t

Could you do the same for COc1ccc(/C=N/C2=NNC(C)(c3ccccc3O)N2C(Cc2c[nH]c3ccccc23)C(=O)O)cc1 (stereo not given) , please?
f

Could you do the same for Oc1ccc(O)c(-[n+]2ccccc2)c1 , please?
t

Could you do the same for COc1ccc(CNc2nc3ccccc3c3c(=O)c4ccccc4sc23)cc1OC , please?
t

Could you do the same for COc1ccc(-c2cnc(-c3ccc(F)cc3)[nH]2)cc1 , please?
f

----------
In this section we review reported growth values for a set of compounds.
system: DU-145 prostate; experiment: NCI-60 one-dose screen, 48 h (100 = growth as untreated, 0 = no growth, -100 = all killed); conditions: 10 µM unless noted
About 83,000 compounds went through this panel and 20% of them were active in at least one assay; those are over-represented in the sample as a whole.
Express your answer in %, writing the number without its unit.

INSERT INTO assay_data (compound, observed_result) VALUES
  ('Nc1nc(Cl)c2c(C(F)(F)F)cn(CC3CCNCC3)c2n1', 109),
  ('NS(=O)(=O)c1ccc(Nc2nc(O)c(/C=C3\C=Nc4ccccc43)s2)cc1', 110),
  ('Nc1nc(Cl)cc(NCCCCNc2cc(Cl)nc(N)n2)n1', 104),
  ('N#Cc1c2c(c(N)[nH]c1=O)C(=O)NC2(O)c1ccccc1 (configuration not stated)', 105),
  ('CCN(CC)CCN1C(=O)c2c(c3c4ccccc4[nH]c3c3[nH]c4ccccc4c23)C1=O', 105);

Can you look up the measured growth of S=c1ssnc1-c1ccccn1 for me?
41.6

Could you do the same for Cc1c(Cl)ccc2c(C(=O)Cl)cc(-c3ccccc3)nc12 , please?
101

Could you do the same for CC(C)(C)C(=O)/C=c1/[nH]c(=O)/c(=C/c2ccccc2O)s1 , please?
78.6

----------
In this section we review reported growth values for a set of molecules.
test system: HT29 colon; assay: NCI-60 one-dose screen, 48 h (100 = growth as untreated, 0 = no growth, -100 = all killed); settings: 10 µM unless noted
The panel holds about 83,000 compounds, 20% with a hit somewhere; the sample as a whole holds those more often. Calls of active or inactive are those of the source. How the source made its calls: active means growth percent below 10; inactive means the rest.

Can you look up the measured growth of O=C(/C=C/c1ccccc1)Oc1ccc(/C=C/c2cc(OC(=O)/C=C/c3ccccc3)cc(OC(=O)/C=C/c3ccccc3)c2)cc1 for me?
90.1% (inactive)

Could you do the same for COc1ccc(C(=O)NC(=O)Nc2ccc3c(c2)NC(=O)/C3=C\c2[nH]c(C)c(C(=O)O)c2C)c(F)c1 , please?
16.5% (inactive)

Could you do the same for O=C(Nc1ccc(-n2ccc3c(NC(=O)c4ccccc4)nccc32)cc1)Nc1ccc(Cl)c(Cl)c1 , please?
-42.8% (active)

Could you do the same for COc1cc2c(cc1OC)-c1c(oc3c4c(ccc3c1=O)OC(C)(C)C=C4)CO2 , please?
89.5% (inactive)

Could you do the same for CCN(CC)c1ccc(C2CC(c3cc(OC)c(OC)c(OC)c3)=NN2)cc1 (centres undefined) , please?
-3.21% (active)

Could you do the same for COc1cc(C(=O)N2CCN(C(=O)c3cc(OC)c(OCc4ccccc4)cc3N)CC2)c(N)cc1OCc1ccccc1 , please?
116% (inactive)
